test system: SK-MEL-5 melanoma; assay: NCI tumour cell line growth inhibition, 48 h
readout.kind: TGI (µM)

compound=Brc1ccc2c(c1)-c1ccccc1C1=NCCN12 readout_kind=TGI limit_qualifier== observed=3.24
compound="O=[N+]([O-])C1(CO)COC(CCc2ccccc2)OC1 (stereo not given)" readout_kind=TGI limit_qualifier=> observed=100
compound=COc1cc2c(cc1OCCCN1CCN(CCCn3c4ccccc4c4ccccc43)CC1)N=C[C@@H]1CCCN1C2=O readout_kind=TGI limit_qualifier== observed=0.472
compound=CCOC(=O)C1=C(O)c2c(OC)ccc(OC)c2C(=O)C1=O readout_kind=TGI limit_qualifier=> observed=100
compound=COc1ccc(OC)c2c(Nc3ccc(S(=O)(=O)O)c4cc(S(=O)(=O)O)cc(S(=O)(=O)O)c34)cc(C)nc12 readout_kind=TGI limit_qualifier=> observed=100
compound=CCc1c[nH]c2ncnc(N3CC[C@](N)(CNC(=O)c4ccc(F)cc4F)C3)c12 readout_kind=TGI limit_qualifier=> observed=52.5
compound=O=C1Cc2c([nH]c3c(Br)cccc23)-c2ccccc2N1 readout_kind=TGI limit_qualifier=> observed=100
compound="NC1=NN(c2ccccc2)C(=O)C1/C(=N\\NC(=O)c1cc2ccccc2cc1O)C(=O)Nc1ccc(Cl)cc1 (stereo not given)" readout_kind=TGI limit_qualifier== observed=56.5
compound=CCOC(=O)Oc1ccc2[nH]c3c(C)cc(N)c(C)c3c2c1 readout_kind=TGI limit_qualifier=> observed=100
compound=COc1cc(/C=C/C(=O)c2c(-c3ccc(Cl)cc3)nc3sc(C)nn23)cc(OC)c1OC readout_kind=TGI limit_qualifier== observed=15.6
